Target: T1, mouse PD-L1 on mPD-L1/CHO-K1 overexpressing cells (mouse, UniProt Q9EP73 19-290)
T1 construct: whole, on cells; also called mouse PD-L1-expressing cells
T1 sequence (Q9EP73 19-290): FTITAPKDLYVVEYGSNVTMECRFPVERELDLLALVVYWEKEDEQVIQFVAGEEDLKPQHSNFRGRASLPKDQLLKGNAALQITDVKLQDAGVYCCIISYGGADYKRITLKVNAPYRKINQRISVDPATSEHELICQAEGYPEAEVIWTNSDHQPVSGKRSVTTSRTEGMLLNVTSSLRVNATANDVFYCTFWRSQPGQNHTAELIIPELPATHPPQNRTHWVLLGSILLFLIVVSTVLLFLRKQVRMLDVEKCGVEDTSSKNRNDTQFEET
Experiment: flow cytometry on mPD-L1/CHO-K1 cells (sheet label mPD-1/CHO-K1)
QUANTITY KIND: Geo Mean in M1
Form: value (number only, do not type unit).

These recorded examples may help you get a feel for the data.
BINDER	TEST RESULT
ME4.A12 anti-PD-L1 antibody (IgG form) (antibody, V domains shown) VH: QVQLVESGAEVKKPGSSVKVSCKASGGTFNNYAVSWVRQAPGQGLEWMGRIIPILGIANYAQTFQGRVTITADKSTTTAYMELSSLRSEDTAVYYCARSHWGYAHGAFDIWGQGTMVTVSS VL: QFVLTQPPSVSGAPGQRVTISCTGSSSNIGAGYDVHWYQQLPGTAPKVLIYGNSDRPSGVPDRFSGSKSGTSASLAITGLQGEDKATYYCQSYDSRLSGPVFGTGTKVTVLG	14.2
ME4.B10 anti-PD-L1 antibody (IgG form) (antibody, V domains shown) VH: QVQLVESGAEVKKPGSSVKVSCKASGGTFNNYAVSWVRQAPGQGLEWMGRIIPILGIANYAQTFQGRVTITADKSTTTAYMELSSLRSEDTAVYYCARSARGYAHGAFDIWGQGTMVTVSS VL: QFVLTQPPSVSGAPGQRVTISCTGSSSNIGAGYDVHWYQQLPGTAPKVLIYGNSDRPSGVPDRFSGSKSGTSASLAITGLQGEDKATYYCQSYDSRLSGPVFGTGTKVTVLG	15
ME4.A2 anti-PD-L1 antibody (IgG form) (antibody, V domains shown) VH: QVQLVESGAEVKKPGSSVKVSCKASGGTFNNYAVSWVRQAPGQGLEWMGRIIPILGIANYAQTFQGRVTITADKSTTTAYMELSSLRSEDTAVYYCARSSRGYAHGAFDIWGQGTMVTVSS VL: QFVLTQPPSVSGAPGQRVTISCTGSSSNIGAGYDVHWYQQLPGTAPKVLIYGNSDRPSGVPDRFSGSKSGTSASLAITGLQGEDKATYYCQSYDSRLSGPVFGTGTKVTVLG	19.1
ME4 anti-PD-L1 antibody (IgG form) (antibody, V domains shown, Converted to IgG with the vectors pIgGHD-6A6Hvy and pIgGLD-6A6Lgt; Expressed in Expi293F cells) VH: QVQLVESGAEVKKPGSSVKVSCKASGGTFNNYAVSWVRQAPGQGLEWMGRIIPILGIANYAQTFQGRVTITADKSTTTAYMELSSLRSEDTAVYYCARSYSGYAEGAFDIWGQGTMVTVSS VL: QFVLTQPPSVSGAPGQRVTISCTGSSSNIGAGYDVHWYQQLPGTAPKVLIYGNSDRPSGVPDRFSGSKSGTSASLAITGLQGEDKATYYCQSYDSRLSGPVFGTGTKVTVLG	20

Recorded Geo Mean in M1 (binder ME4.A11 anti-PD-L1 antibody (IgG form) (antibody, V domains shown) VH: QVQLVESGAEVKKPGSSVKVSCKASGGTFNNYAVSWVRQAPGQGLEWMGRIIPILGIANYAQTFQGRVTITADKSTTTAYMELSSLRSEDTAVYYCARSRGGYAHGAFDIWGQGTMVTVSS VL: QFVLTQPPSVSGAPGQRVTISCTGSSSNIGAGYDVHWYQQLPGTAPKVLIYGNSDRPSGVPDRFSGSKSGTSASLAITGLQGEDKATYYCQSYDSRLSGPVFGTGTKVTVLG ): 14.2

// recorded Geo Mean in M1 for ME4.B12 anti-PD-L1 antibody (IgG form) (antibody, V domains shown) VH: QVQLVESGAEVKKPGSSVKVSCKASGGTFNNYAVSWVRQAPGQGLEWMGRIIPILGIANYAQTFQGRVTITADKSTTTAYMELSSLRSEDTAVYYCARSSFGYSVGAFDIWGQGTMVTVSS VL: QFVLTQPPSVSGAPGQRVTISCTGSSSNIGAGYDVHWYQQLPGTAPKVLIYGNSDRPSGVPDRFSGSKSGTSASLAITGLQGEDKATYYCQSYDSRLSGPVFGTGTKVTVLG : 16.1
